Assay: Cytotoxicity to HepG2.2.15 cells, MTT method
Format: cell-based
Settings: human, HepG2.2.15 cells (HBV-transgenic human hepatoma cell line), day 8, 50% death concentration
OBSERVABLE: CC50 at 8 day

                            smiles_notation     result
0      CCOC(=O)c1nc(-c2cccc(OC)c2)sc1CC(C)C  > 33.3 µM
1                 CC(C)Cc1sc(-c2nccs2)nc1CO  > 33.3 µM
2        CCOC(=O)c1nc(-c2ccccc2OC)sc1CC(C)C  > 33.3 µM
3          O=C(O)c1nc(-c2nccs2)sc1Cc1ccccc1     192 µM
4         CC(C)Cc1sc(-c2nccs2)nc1C(=O)N(C)C   > 100 µM
5       CCOC(=O)c1nc(-c2cccc(C)c2)sc1CC(C)C  > 33.3 µM
6       CCOC(=O)c1nc(-c2ccc(O)cc2)sc1CC(C)C  > 33.3 µM
7  CCOC(=O)c1nc(-c2ccc3ccccc3n2)[nH]c1CC(C)C   > 100 µM
8               CCCCc1sc(-c2nccs2)nc1C(=O)O     257 µM
9          CCOC(=O)c1nc(-c2ccccn2)sc1CC(C)C   > 100 µM

State the recorded CC50 at 8 day for this entry: CC(C)Cc1sc(-c2nccs2)nc1C(=O)OC(C)(C)C > 33.3 µM

* * *

Assay: Cytotoxicity to HepG2.2.15 cells, MTT method
Type: cell-based
Conditions: human, HepG2.2.15 cells (HBV-transgenic human hepatoma cell line), day 8, 50% death concentration
Protocol: Hepatitis B virus (HBV) transgenic human hepatoma carcinoma cell, HepG2.2.15 cell line, can secrete hepatitis B virus particles (containing antigen and DNA) into the supernatant when being incubated. Under the influence of antiviral drugs, the contents of HBsAg, HBeAg and viral DNA secreted from cells into the supernatant were detected. […] Meanwhile, the cytotoxic effect of the sample drugs can be detected. […]
OBSERVABLE: CC50 at 8 day

For orientation, consider the following solved cases.
                                   molecule     result
0       CCOC(=O)c1nc(-c2ncc(Br)s2)sc1CC(C)C  > 33.3 µM
1  CCOC(=O)c1nc(-c2ccc([N+](=O)[O-])c(OC)c2)sc1CC(C)C  > 33.3 µM
2             CC(=O)c1nc(-c2nccs2)sc1CC(C)C  > 33.3 µM
3         CCOC(=O)c1nc(-c2ccccc2C)sc1CC(C)C  > 33.3 µM
4       CCOC(=O)c1nc(-c2cccc(F)c2)sc1CC(C)C  > 33.3 µM

State the recorded CC50 at 8 day for this entry: CCC(O)c1nc(-c2nccs2)sc1CC(C)C (stereo not shown) > 33.3 µM

State the recorded CC50 at 8 day for this entry: CCOC(=O)c1nc(-c2ccc(F)cc2)sc1CC(C)C > 33.3 µM

State the recorded CC50 at 8 day for this entry: Cc1cnc(-c2nc(C(=O)OC(C)C)c(CC(C)C)s2)s1 [W28M] > 20 µM

State the recorded CC50 at 8 day for this entry: CNC(=O)c1nc(-c2nccs2)sc1CC(C)C > 100 µM

State the recorded CC50 at 8 day for this entry: CC(C)Cc1sc(-c2nccs2)nc1C(=O)Nc1ccccc1 50 µM

State the recorded CC50 at 8 day for this entry: CCOC(=O)c1nc(-c2ccc(NC(=O)OC(C)(C)C)cc2)sc1CC(C)C > 33.3 µM

State the recorded CC50 at 8 day for this entry: COC(=O)c1nc(-c2nccs2)sc1CC(C)C > 333 µM

State the recorded CC50 at 8 day for this entry: CC(C)Cc1sc(-c2nccs2)nc1C(N)=O > 100 µM

* * *

Assay: Cytotoxicity to HepG2.2.15 cells, MTT method
Assay type: cell-based
Settings: human, HepG2.2.15 cells (HBV-transgenic human hepatoma cell line), day 8, 50% death concentration
We begin with a simple list: items and their reported CC50 at 8 day.

For orientation, consider the following solved cases.
>>> df
                                   molecule     result
0  CC(C)Cc1sc(-c2nccs2)nc1C(C)O (stereo not shown)  > 33.3 µM
1         CCOC(=O)c1nc(-c2ccccc2F)sc1CC(C)C  > 33.3 µM
2  CCOC(=O)c1nc(-c2cccc([N+](=O)[O-])c2)sc1CC(C)C  > 33.3 µM

State the recorded CC50 at 8 day for this entry: CCOC(=O)CCc1nc(-c2nccs2)sc1CC(C)C > 33.3 µM

State the recorded CC50 at 8 day for this entry: COc1ccc(-c2nc(C(=O)OC(C)C)c(CC(C)C)s2)cc1 > 33 µM

* * *

Experiment: Cytotoxicity to HepG2.2.15 cells, MTT method
Assay type: cell-based
Settings: human, HepG2.2.15 cells (HBV-transgenic human hepatoma cell line), day 8, 50% death concentration
We begin with a simple list: items and their reported CC50 at 8 day.

For orientation, consider the following solved cases.
>>> print(df.to_string())
                             compound    result
0  CC(C)Cc1sc(-c2nccs2)nc1C(=O)OC(C)C  > 100 µM
1    CCOC(=O)c1nc(-c2ccccn2)oc1CC(C)C  > 100 µM

As a next step, examine the compound that follows.
State the recorded CC50 at 8 day for this entry: CCOC(=O)c1nc(-c2cccc(O)n2)sc1CC(C)C > 100 µM

* * *

Assay: Cytotoxicity to HepG2.2.15 cells, MTT method
Format: cell-based
Settings: human, HepG2.2.15 cells (HBV-transgenic human hepatoma cell line), day 8, 50% death concentration
OBSERVABLE: CC50 at 8 day

For orientation, consider the following solved cases.
>>> print(df.to_string())
                                   compound     observable     result
0        CCOC(=O)C=Cc1nc(-c2nccs2)sc1CC(C)C  CC50 at 8 day  > 33.3 µM
1  CCOC(=O)c1nc(-c2ccccc2[N+](=O)[O-])sc1CC(C)C  CC50 at 8 day  > 33.3 µM
2          CCOC(=O)c1nc(-c2ccncc2)sc1CC(C)C  CC50 at 8 day   > 100 µM
3    CCOC(=O)c1nc(-c2ccc3ccccc3n2)oc1CC(C)C  CC50 at 8 day    45.4 µM
4            CCC(=O)c1nc(-c2nccs2)sc1CC(C)C  CC50 at 8 day  > 33.3 µM

State the recorded CC50 at 8 day for this entry: CCOC(=O)c1nc(-c2ccc([N+](=O)[O-])cc2)sc1CC(C)C > 33.3 µM

State the recorded CC50 at 8 day for this entry: CCOC(=O)c1nc(-c2ncccc2O)sc1CC(C)C 5.67 µM

State the recorded CC50 at 8 day for this entry: CCOC(=O)c1nc(-c2ccc(OC)cc2)sc1CC(C)C > 33.3 µM

* * *

We begin with a simple list: items and their reported CC50 at 8 day.
Experiment: Cytotoxicity to HepG2.2.15 cells, MTT method
Assay type: cell-based
Details: human, HepG2.2.15 cells (HBV-transgenic human hepatoma cell line), day 8, 50% death concentration

For orientation, consider the following solved cases.
In [3]: df
Out[3]:
                                   compound     result
0      CCOC(=O)c1nc(-c2cccc(Cl)c2)sc1CC(C)C  > 33.3 µM
1       CCOC(=O)c1nc(-c2ccc(C)cc2)sc1CC(C)C  > 33.3 µM
2  CC(C)Cc1sc(-c2nccs2)nc1C(=O)NCc1ccc(F)cc1 [W28F]      43 µM
3          CCOC(=O)c1nc(-c2cccnc2)sc1CC(C)C   > 100 µM
4  CCOC(=O)c1nc(-c2ncc(-c3ccccc3)s2)sc1CC(C)C  > 33.3 µM

As a next step, examine the compound that follows.
State the recorded CC50 at 8 day for this entry: CCOC(=O)c1nc(-c2cccc([N+](=O)[O-])c2OC)sc1CC(C)C 19.2 µM
